tested on: A549; test: Antiproliferative activity against human A549 cells assessed as reduction in cell viability measured after 72 hrs by MTT assay; type: functional, cell-based; settings: Homo sapiens, A549, 72 h; read-out: IC50
measured_parameter: IC50 (nM)

(a) CC[C@H](C)[C@H]1C(=O)N[C@H](Cc2cc(Cl)c(O)c(Cl)c2)C(=O)N[C@@H](C(C)(C)O)C(=O)O[C@H](c2ccccc2)[C@H](C)/C=C/C=C(\C)[C@H](OC)C/C=C/C(=O)N1C
(b) CO[C@@H]1C/C=C(\C)C(=O)N(C)[C@@H](C(C)C)C(=O)N[C@H](Cc2cc(Cl)c(O)c(Cl)c2)C(=O)N[C@@H](C(C)C)C(=O)O[C@H](c2ccccc2)[C@H](C)/C=C/C=C/1C
(c) CC[C@H](C)[C@H]1C(=O)N[C@H](Cc2cc(Cl)c(O)c(Cl)c2)C(=O)N[C@@H](C(C)(C)O)C(=O)O[C@H](c2ccccc2)[C@H](C)/C=C/C=C(\C)[C@H](OC)C/C=C(\C)C(=O)N1C
[ask] Ascending by IC50, please. Submit the labels in the order that the ranking request calls for.
[reply] c, b, a
(c: 10.1 nM, b: 21.6 nM, a: 40.5 nM)

Data provenance is ChEMBL document CHEMBL4346669.
